B1: Membrane-associated guanylate kinase, WW and PDZ domain-containing protein 2, residues 296 to 340; numbered along this chain, Q86UL8 (parent)
chain: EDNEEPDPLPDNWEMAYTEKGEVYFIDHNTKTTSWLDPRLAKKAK

- Variants of: B1
- Experiment: abundance fitness (aPCA) (normalised: wild type 0, dead -1); higher = more abundant; growth selection in yeast, the domain comes from the species named
- Details: Homo sapiens
Readout Type: abundance fitness

Could you share which abundance fitness value was measured for `H28G` ?
-0.431

Could you share which abundance fitness value was measured for `E4C` ?
-0.005

Could you share which abundance fitness value was measured for `N29W` ?
-0.151

Could you share which abundance fitness value was measured for `E14W` ?
-1.04

Could you share which abundance fitness value was measured for `D27I` ?
-1.58

Could you share which abundance fitness value was measured for `N29D` ?
-0.109

Could you share which abundance fitness value was measured for `Y17F` ?
-0.029

Could you share which abundance fitness value was measured for `N3M` ?
0.083

Could you share which abundance fitness value was measured for `E22L` ?
-0.321

Could you share which abundance fitness value was measured for `T30S` ?
0.122

Could you share which abundance fitness value was measured for `W35Q` ?
-0.365

Could you share which abundance fitness value was measured for `P10W` ?
-0.469

Could you share which abundance fitness value was measured for `P10I` ?
-0.637

Could you share which abundance fitness value was measured for `K20Q` ?
0.018

Could you share which abundance fitness value was measured for `W13G` ?
-0.787

Could you share which abundance fitness value was measured for `W35D` ?
-0.547

Could you share which abundance fitness value was measured for `R39A` ?
-0.514

Could you share which abundance fitness value was measured for `W35M` ?
-0.247

Could you share which abundance fitness value was measured for `D11K` ?
-0.04

Could you share which abundance fitness value was measured for `I26E` ?
-0.585

Could you share which abundance fitness value was measured for `P6I` ?
-0.088

Could you share which abundance fitness value was measured for `E22P` ?
-0.825

Could you share which abundance fitness value was measured for `A44E` ?
0.07

Could you share which abundance fitness value was measured for `T32W` ?
-0.325

Could you share which abundance fitness value was measured for `S34V` ?
-0.758

Could you share which abundance fitness value was measured for `T30P` ?
-1.17

Could you share which abundance fitness value was measured for `D7A` ?
0.185

Could you share which abundance fitness value was measured for `E14D` ?
-0.097

Could you share which abundance fitness value was measured for `W13S` ?
-0.556

Could you share which abundance fitness value was measured for `K42M` ?
0.011

Could you share which abundance fitness value was measured for `H28W` ?
-0.334

Could you share which abundance fitness value was measured for `T30R` ?
-0.183

Could you share which abundance fitness value was measured for `T33V` ?
-0.272

Could you share which abundance fitness value was measured for `G21E` ?
-0.14

Could you share which abundance fitness value was measured for `L36G` ?
-0.198

Could you share which abundance fitness value was measured for `P6S` ?
0.003

Could you share which abundance fitness value was measured for `P6V` ?
0.034

Could you share which abundance fitness value was measured for `H28Q` ?
-0.267

Could you share which abundance fitness value was measured for `P10D` ?
-0.341

Could you share which abundance fitness value was measured for `T33L` ?
-0.635

Could you share which abundance fitness value was measured for `D37A` ?
-0.431

Could you share which abundance fitness value was measured for `Y24C` ?
-0.546

Could you share which abundance fitness value was measured for `E1M` ?
-0.067

Could you share which abundance fitness value was measured for `Y24V` ?
-0.598

Could you share which abundance fitness value was measured for `D11N` ?
-0.011

Could you share which abundance fitness value was measured for `P6G` ?
-0.004

Could you share which abundance fitness value was measured for `D27G` ?
-0.937

Could you share which abundance fitness value was measured for `H28F` ?
-0.267

Could you share which abundance fitness value was measured for `E14V` ?
-0.264

Could you share which abundance fitness value was measured for `T33I` ?
-0.507

Could you share which abundance fitness value was measured for `K43F` ?
-0.142

Could you share which abundance fitness value was measured for `S34C` ?
-0.181

Could you share which abundance fitness value was measured for `E4R` ?
0.109

Could you share which abundance fitness value was measured for `E22I` ?
-0.517

Could you share which abundance fitness value was measured for `F25W` ?
-0.103

Could you share which abundance fitness value was measured for `W35V` ?
-0.473

Could you share which abundance fitness value was measured for `N3C` ?
-0.031

Could you share which abundance fitness value was measured for `G21V` ?
-0.975

Could you share which abundance fitness value was measured for `W35G` ?
-0.523

Could you share which abundance fitness value was measured for `D11W` ?
-0.074

Could you share which abundance fitness value was measured for `P8T` ?
-0.035

Could you share which abundance fitness value was measured for `F25G` ?
-0.75

Could you share which abundance fitness value was measured for `R39M` ?
-0.599

Could you share which abundance fitness value was measured for `K42N` ?
0.032

Could you share which abundance fitness value was measured for `Y24P` ?
-1.07

Could you share which abundance fitness value was measured for `F25K` ?
-0.637

Could you share which abundance fitness value was measured for `L36S` ?
-0.125

Could you share which abundance fitness value was measured for `G21R` ?
-0.174

Could you share which abundance fitness value was measured for `D27E` ?
-0.487

Could you share which abundance fitness value was measured for `F25V` ?
-1.05

Could you share which abundance fitness value was measured for `A16E` ?
-0.239

Could you share which abundance fitness value was measured for `P6E` ?
-0.138

Could you share which abundance fitness value was measured for `K43T` ?
-0.043

Could you share which abundance fitness value was measured for `K20T` ?
-0.063

Could you share which abundance fitness value was measured for `A41R` ?
-0.058

Could you share which abundance fitness value was measured for `K43G` ?
0.066

Could you share which abundance fitness value was measured for `E22V` ?
-0.325

Could you share which abundance fitness value was measured for `E22W` ?
-0.551

Could you share which abundance fitness value was measured for `T18I` ?
-0.997

Could you share which abundance fitness value was measured for `R39K` ?
-0.411

Could you share which abundance fitness value was measured for `P8A` ?
-0.014

Could you share which abundance fitness value was measured for `W35R` ?
-0.362

Could you share which abundance fitness value was measured for `L40Q` ?
0.024

Could you share which abundance fitness value was measured for `T32V` ?
-0.111

Could you share which abundance fitness value was measured for `E19S` ?
-0.021

Could you share which abundance fitness value was measured for `D7S` ?
0.04

Could you share which abundance fitness value was measured for `N3Y` ?
0.037

Could you share which abundance fitness value was measured for `D7E` ?
-0.008

Could you share which abundance fitness value was measured for `M15C` ?
-0.127

Could you share which abundance fitness value was measured for `K31T` ?
-0.355

Could you share which abundance fitness value was measured for `D2E` ?
-0.131
